biological target: human GLP-1 receptor (human, UniProt P43220 24-463); experiment: cell-based or functional assay
*1 amine or outer side, *2 acyl side, *3 side chain or, on linkers, in order; H or OH if unused. Where no end group is shown, it is not given here. Side-chain parts run from the residue outwards. [ ]: non-standard residue; d: D form. The star is where a group is joined. Decanoyl(10-(4-HOOC-PhO)) = O=C(O)c1ccc(OCCCCCCCCCC(=O)*)cc1; αMePhe(2-F) = C[C@](N)(Cc1ccccc1F)C(=O)O; γGlu = O=C(O)[C@H](CCC(=O)[*:2])N[*:1]; αMeY = C[C@](N)(Cc1ccc(O)cc1)C(=O)O; 4Pal = N[C@@H](Cc1ccncc1)C(=O)O; αMeL = CC(C)C[C@](C)(N)C(=O)O; Lauroyl = CCCCCCCCCCCC(=O)*; Orn = NCCC[C@H](N)C(=O)O; AEEA = NCCOCCOCC(=O)O; Aib = CC(C)(N)C(=O)O
Each record here notes measured cAMP EC50 (1.0% HSA).

BINDER	cAMP EC50 (1.0% HSA) (nM)
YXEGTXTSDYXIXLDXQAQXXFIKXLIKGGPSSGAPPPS (Y-Aib-EGT-αMeF(2F)-TSDY-Aib-I-αMeL-LD-Orn-QAQ-Aib-Orn-FIK((2-[2-(2-Amino-ethoxy)-ethoxy]-acetyl)2-(γ-Glu)-CO-(CH2)12-CO2H)-αMeY-LIK((2-[2-(2-Amino-ethoxy)-ethoxy]-acetyl)2-(γ-Glu)-CO-(CH2)12-CO2H)GGPSSGAPPPS-NH2) [Example 401]	5.39
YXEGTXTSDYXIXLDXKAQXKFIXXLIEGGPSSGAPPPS (Y-Aib-EGT-αMeF(2F)-TSDY-Aib-I-αMeL-LD-Orn-K((2-[2-(2-Amino-ethoxy)-ethoxy]-acetyl)2-(10-(4-carboxyphenoxy)decanoyl))AQ-Aib-K((2-[2-(2-Amino-ethoxy)-ethoxy]-acetyl)2-(10-(4-carboxyphenoxy)decanoyl))FI-(D-Glu)-αMeY-LIEGGPSSGAPPPS-NH2) [Example 393]	9.18
YXEGTXTSDYXIXLDXQAQXEFIKXLIKGGPSSGAPPPS (Y-Aib-EGT-αMeF(2F)-TSDY-Aib-I-αMeL-LD-Orn-QAQ-Aib-EFIK((2-[2-(2-Amino-ethoxy)-ethoxy]-acetyl)2-(γ-Glu)-(10-(4-carboxyphenoxy)decanoyl))-αMeY-LIK((2-[2-(2-Amino-ethoxy)-ethoxy]-acetyl)2-(γ-Glu)-(10-(4-carboxyphenoxy)decanoyl))GGPSSGAPPPS-NH2) [Example 402]	13.5
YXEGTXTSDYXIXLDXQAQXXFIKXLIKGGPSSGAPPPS (Y-Aib-EGT-αMeF(2F)-TSDY-Aib-I-αMeL-LD-Orn-QAQ-Aib-Orn-FIK((2-[2-(2-Amino-ethoxy)-ethoxy]-acetyl)2-(γ-Glu)--C10_4CP)-αMeY-LIK((2-[2-(2-Amino-ethoxy)-ethoxy]-acetyl)2-(γ-Glu)--C10_4CP)GGPSSGAPPPS-NH2) [Example 492]	4.31
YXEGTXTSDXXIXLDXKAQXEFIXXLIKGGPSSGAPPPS (Y-Aib-EGT-αMeF(2F)-TSD-4Pal-Aib-I-αMeL-LD-Orn-K((2-[2-(2-Amino-ethoxy)-ethoxy]-acetyl)-(γ-Glu)-CO-(CH2)10-CH3)AQ-Aib-EFI-(D-Glu)-αMeY-LIK((2-[2-(2-Amino-ethoxy)-ethoxy]-acetyl)-(γ-Glu)-CO-(CH2)10-CH3)GGPSSGAPPPS-NH2) [Example 427]	25.1
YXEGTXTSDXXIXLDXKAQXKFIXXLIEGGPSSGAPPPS (Y-Aib-EGT-αMeF(2F)-TSD-4Pal-Aib-I-αMeL-LD-Orn-K(PEG4-(γ-Glu)-CO-(CH2)12-CO2H)AQ-Aib-K(PEG4-(γ-Glu)-CO-(CH2)12-CO2H)FI-(D-Glu)-αMeY-LIEGGPSSGAPPPS-NH2) [Example 405]	37.5
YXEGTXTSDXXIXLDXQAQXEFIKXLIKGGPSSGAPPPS (Y-Aib-EGT-αMeF(2F)-TSD-4Pal-Aib-I-αMeL-LD-Orn-QAQ-Aib-EFIK((2-[2-(2-Amino-ethoxy)-ethoxy]-acetyl)2-(γ-Glu)-(10-(4-carboxyphenoxy)decanoyl))-αMeY-LIK((2-[2-(2-Amino-ethoxy)-ethoxy]-acetyl)2-(γ-Glu)-(10-(4-carboxyphenoxy)decanoyl))GGPSSGAPPPS-NH2) [Example 403]	7.31
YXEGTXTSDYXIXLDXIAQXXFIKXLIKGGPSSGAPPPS (Y-Aib-EGT-αMeF(2F)-TSDY-Aib-I-αMeL-LD-Orn-IAQ-Aib-Orn-FIK((2-[2-(2-Amino-ethoxy)-ethoxy]-acetyl)2-(γ-Glu)-(10-(4-carboxyphenoxy)decanoyl))-αMeY-LIK((2-[2-(2-Amino-ethoxy)-ethoxy]-acetyl)2-(γ-Glu)-(10-(4-carboxyphenoxy)decanoyl))GGPSSGAPPPS-NH2) [Example 355]	11.3
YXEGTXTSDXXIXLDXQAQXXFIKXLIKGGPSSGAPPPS (Y-Aib-EGT-αMeF(2F)-TSD-4Pal-Aib-I-αMeL-LD-Orn-QAQ-Aib-Orn-FIK((2-[2-(2-Amino-ethoxy)-ethoxy]-acetyl)2-(γ-Glu)-CO-(CH2)12-CO2H)-αMeY-LIK((2-[2-(2-Amino-ethoxy)-ethoxy]-acetyl)2-(γ-Glu)-CO-(CH2)12-CO2H)GGPSSGAPPPS-NH2) [Example 391]	2.62
YXEGTXTSDKXIXLDGKAQXEFIXXLIEGGPSSGAPPPS (Y-Aib-EGT-αMeF(2F)-TSDK((2-[2-(2-Amino-ethoxy)-ethoxy]-acetyl)2-(γ-Glu)-CO-(CH2)10-CH3)-Aib-I-αMeL-LDGK((2-[2-(2-Amino-ethoxy)-ethoxy]-acetyl)2-(γ-Glu)-CO-(CH2)10-CH3)AQ-Aib-EFI-(D-Glu)-αMeY-LIEGGPSSGAPPPS-NH2) [Example 445]	13.1
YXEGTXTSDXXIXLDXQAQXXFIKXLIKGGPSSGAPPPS (Y-Aib-EGT-αMeF(2F)-TSD-4Pal-Aib-I-αMeL-LD-Orn-QAQ-Aib-Orn-FIK(PEG3-(γ-Glu)-(10-(4-carboxyphenoxy)decanoyl))-αMeY-LIK(PEG3-(γ-Glu)-(10-(4-carboxyphenoxy)decanoyl))GGPSSGAPPPS-NH2) [Example 462]	3.34
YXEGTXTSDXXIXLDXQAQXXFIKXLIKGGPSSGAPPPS (Y-Aib-EGT-αMeF(2F)-TSD-4Pal-Aib-I-αMeL-LD-Orn-QAQ-Aib-Orn-FIK((2-[2-(2-Amino-ethoxy)-ethoxy]-acetyl)-(γ-Glu)-CO-(CH2)12-CO2H)-αMeY-LIK((2-[2-(2-Amino-ethoxy)-ethoxy]-acetyl)-(γ-Glu)-CO-(CH2)12-CO2H)GGPSSGAPPPS-NH2) [Example 459]	4.87
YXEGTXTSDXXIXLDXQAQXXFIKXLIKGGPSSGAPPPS (not fully specified; Y-Aib-EGT-αMeF(2F)-TSD-4Pal-Aib-I-αMeL-LD-Orn-QAQ-Aib-Orn-FIK(Ahx-(2-[2-(2-Amino-ethoxy)-ethoxy]-acetyl)-(γ-Glu)-CO-(CH2)12-CO2)-αMeY-LIK(Ahx-(2-[2-(2-Amino-ethoxy)-ethoxy]-acetyl)-(γ-Glu)-CO-(CH2)12-CO2)GGPSSGAPPPS-NH2) [Example 451]	7.23
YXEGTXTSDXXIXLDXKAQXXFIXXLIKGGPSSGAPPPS (Y-Aib-EGT-αMeF(2F)-TSD-4Pal-Aib-I-αMeL-LD-Orn-K((2-[2-(2-Amino-ethoxy)-ethoxy]-acetyl)3-(γ-Glu)-CO-(CH2)10-CH3)AQ-Aib-Orn-FI-(D-Glu)-αMeY-LIK((2-[2-(2-Amino-ethoxy)-ethoxy]-acetyl)3-(γ-Glu)-CO-(CH2)10-CH3)GGPSSGAPPPS-NH2) [Example 434]	1.73
Y[Aib]EGT[αMePhe(2-F)]TSDV[Aib]I[αMeL]LD[Orn]QAQ[Aib]EFIK([AEEA-AEEA-γGlu-Decanoyl(10-(4-HOOC-PhO))])[αMeY]LIK([AEEA-AEEA-γGlu-Decanoyl(10-(4-HOOC-PhO))])GGPSSGAPPPS-NH2 [Example 446]	33.5
YXEGTXTSDXXGXLDXQAQXXFIKXLIKGGPSSGAPPPS (Y-Aib-EGT-αMeF(2F)-TSD-4Pal-Aib-G-αMeL-LD-Orn-QAQ-Aib-Orn-FIK((2-[2-(2-Amino-ethoxy)-ethoxy]-acetyl)2-(γ-Glu)-CO-(CH2)12-CO2H)-αMeY-LIK((2-[2-(2-Amino-ethoxy)-ethoxy]-acetyl)2-(γ-Glu)-CO-(CH2)12-CO2H)GGPSSGAPPPS-NH2) [Example 441]	5.75
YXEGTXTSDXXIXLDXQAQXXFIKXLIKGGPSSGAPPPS (not fully specified; Y-Aib-EGT-αMeF(2F)-TSD-4Pal-Aib-I-αMeL-LD-Orn-QAQ-Aib-Orn-FIK((2-[2-(2-Amino-ethoxy)-ethoxy]10-(4-carboxyphenoxy)decanoyl))-αMeY-LIK((2-[2-(2-Amino-ethoxy)-ethoxy]-acetyl)-Aoc-(γ-Glu)-(10-(4-carboxyphenoxy)decanoyl))GGPSSGAPPPS-NH2) [Example 454]	18.6
Y[Aib]EGT[αMePhe(2-F)]TSDK([AEEA-AEEA-γGlu-Lauroyl])[Aib]I[αMeL]LD[Orn]K([AEEA-AEEA-γGlu-Lauroyl])AQ[Aib][4Pal]FI[dE][αMeY]LIEGGPSSGAPPPS-NH2 [Example 415]	5.72
Y[Aib]EGT[αMePhe(2-F)]TSDV[Aib]I[αMeL]LD[Orn]K([AEEA-γGlu-Decanoyl(10-(4-HOOC-PhO))])AQ[Aib]EFI[dE][αMeY]LIK([AEEA-γGlu-Decanoyl(10-(4-HOOC-PhO))])GGPSSGAPPPS-NH2 [Example 379]	48.5
